B1: scFv; the commonest letter at each place (parent)
chain 1: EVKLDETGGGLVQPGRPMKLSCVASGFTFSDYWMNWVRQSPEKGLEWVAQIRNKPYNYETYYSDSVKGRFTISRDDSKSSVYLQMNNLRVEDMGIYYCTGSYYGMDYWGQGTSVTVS
chain 2: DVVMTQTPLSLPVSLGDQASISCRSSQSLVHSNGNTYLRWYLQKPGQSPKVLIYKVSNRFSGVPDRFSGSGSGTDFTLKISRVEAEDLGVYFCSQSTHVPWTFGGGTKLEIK

- Variants of: B1
- experiment description: yeast surface expression (ratio to wild type); higher = more expressed
- recorded conditions: format: scFv 4-4-20, heavy + light
In this section we review reported yeast surface expression values for a set of variants.
endpoint label: yeast surface expression

[[record]]
mutation_descriptor = "chain 1 S101G W108R"
endpoint_label = "yeast surface expression"
endpoint_result = 0.436

[[record]]
mutation_descriptor = "chain 1 Y103T D106Y"
endpoint_label = "yeast surface expression"
endpoint_result = 0.37

[[record]]
mutation_descriptor = "chain 1 D31V Y32P"
endpoint_label = "yeast surface expression"
endpoint_result = 0.759

[[record]]
mutation_descriptor = "chain 1 Y103K G109W"
endpoint_label = "yeast surface expression"
endpoint_result = 0.123

[[record]]
mutation_descriptor = "chain 1 Y102A M105T"
endpoint_label = "yeast surface expression"
endpoint_result = 1.08

[[record]]
mutation_descriptor = "chain 1 S101R G104P"
endpoint_label = "yeast surface expression"
endpoint_result = 0.361

[[record]]
mutation_descriptor = "chain 1 F29I D31K"
endpoint_label = "yeast surface expression"
endpoint_result = 0.958

[[record]]
mutation_descriptor = "chain 1 T28N F29R"
endpoint_label = "yeast surface expression"
endpoint_result = 0.996

[[record]]
mutation_descriptor = "chain 1 D31P W33S"
endpoint_label = "yeast surface expression"
endpoint_result = 0.352

[[record]]
mutation_descriptor = "chain 1 Y32K W33T"
endpoint_label = "yeast surface expression"
endpoint_result = 0.694

[[record]]
mutation_descriptor = "chain 1 T28S D31C"
endpoint_label = "yeast surface expression"
endpoint_result = 0.771

[[record]]
mutation_descriptor = "chain 1 Y32H M34Q"
endpoint_label = "yeast surface expression"
endpoint_result = 0.862

[[record]]
mutation_descriptor = "chain 1 S30Q N35K"
endpoint_label = "yeast surface expression"
endpoint_result = 0.304

[[record]]
mutation_descriptor = "chain 1 S30E D31S"
endpoint_label = "yeast surface expression"
endpoint_result = 0.987

[[record]]
mutation_descriptor = "chain 1 Y103N M105G Y107M"
endpoint_label = "yeast surface expression"
endpoint_result = 0.836

[[record]]
mutation_descriptor = "chain 1 F29C D31M"
endpoint_label = "yeast surface expression"
endpoint_result = 0.669

[[record]]
mutation_descriptor = "chain 1 Y32I W36P"
endpoint_label = "yeast surface expression"
endpoint_result = 0.723

[[record]]
mutation_descriptor = "chain 1 Y102F G109H"
endpoint_label = "yeast surface expression"
endpoint_result = 0.186

[[record]]
mutation_descriptor = "chain 1 Y102S G109Y"
endpoint_label = "yeast surface expression"
endpoint_result = 0.248

[[record]]
mutation_descriptor = "chain 1 W33R W36Y"
endpoint_label = "yeast surface expression"
endpoint_result = 0.561

[[record]]
mutation_descriptor = "chain 1 G100N Y102D G109M"
endpoint_label = "yeast surface expression"
endpoint_result = 0.159

[[record]]
mutation_descriptor = "chain 1 F29A V37S"
endpoint_label = "yeast surface expression"
endpoint_result = 0.545

[[record]]
mutation_descriptor = "chain 1 T28N N35T"
endpoint_label = "yeast surface expression"
endpoint_result = 0.93

[[record]]
mutation_descriptor = "chain 1 F29L D31L"
endpoint_label = "yeast surface expression"
endpoint_result = 0.633

[[record]]
mutation_descriptor = "chain 1 T28A Y32K"
endpoint_label = "yeast surface expression"
endpoint_result = 1.02

[[record]]
mutation_descriptor = "chain 1 S101H G109V"
endpoint_label = "yeast surface expression"
endpoint_result = 0.231

[[record]]
mutation_descriptor = "chain 1 Y32H"
endpoint_label = "yeast surface expression"
endpoint_result = 1.03

[[record]]
mutation_descriptor = "chain 1 Y32A"
endpoint_label = "yeast surface expression"
endpoint_result = 1.15

[[record]]
mutation_descriptor = "chain 1 W33A W36H"
endpoint_label = "yeast surface expression"
endpoint_result = 0.549

[[record]]
mutation_descriptor = "chain 1 G100C D106G"
endpoint_label = "yeast surface expression"
endpoint_result = 0.553

[[record]]
mutation_descriptor = "chain 1 F29W S30V N35H"
endpoint_label = "yeast surface expression"
endpoint_result = 0.547

[[record]]
mutation_descriptor = "chain 1 N35L W36I"
endpoint_label = "yeast surface expression"
endpoint_result = 0.256

[[record]]
mutation_descriptor = "chain 1 S101D Y107I"
endpoint_label = "yeast surface expression"
endpoint_result = 1.02

[[record]]
mutation_descriptor = "chain 1 D106S W108V"
endpoint_label = "yeast surface expression"
endpoint_result = 0.859

[[record]]
mutation_descriptor = "chain 1 F29Q V37M"
endpoint_label = "yeast surface expression"
endpoint_result = 1.09

[[record]]
mutation_descriptor = "chain 1 G104F"
endpoint_label = "yeast surface expression"
endpoint_result = 0.597

[[record]]
mutation_descriptor = "chain 1 S30F M34Y"
endpoint_label = "yeast surface expression"
endpoint_result = 0.762

[[record]]
mutation_descriptor = "chain 1 G104T D106Y"
endpoint_label = "yeast surface expression"
endpoint_result = 0.331

[[record]]
mutation_descriptor = "chain 1 D106A Y107I"
endpoint_label = "yeast surface expression"
endpoint_result = 0.646

[[record]]
mutation_descriptor = "chain 1 S30G M34H"
endpoint_label = "yeast surface expression"
endpoint_result = 0.659

[[record]]
mutation_descriptor = "chain 1 S101K"
endpoint_label = "yeast surface expression"
endpoint_result = 0.463

[[record]]
mutation_descriptor = "chain 1 Y102W"
endpoint_label = "yeast surface expression"
endpoint_result = 0.638

[[record]]
mutation_descriptor = "chain 1 G100V G109L"
endpoint_label = "yeast surface expression"
endpoint_result = 0.256

[[record]]
mutation_descriptor = "chain 1 G100W Y102S"
endpoint_label = "yeast surface expression"
endpoint_result = 0.723

[[record]]
mutation_descriptor = "chain 1 F29N S30Q"
endpoint_label = "yeast surface expression"
endpoint_result = 1.02

[[record]]
mutation_descriptor = "chain 1 S30G M34I"
endpoint_label = "yeast surface expression"
endpoint_result = 0.889


Where do these numbers come from? They come from the FLAb antibody collection (doi:10.7554/elife.23156).
